This collection of values is drawn from ChEMBL document CHEMBL5726257.

Listing: IC50 of selected molecules
- EXPERIMENTAL TARGET: Sphingosine 1-phosphate receptor 2 (Homo sapiens)
- Sequence (O95136 whole entry): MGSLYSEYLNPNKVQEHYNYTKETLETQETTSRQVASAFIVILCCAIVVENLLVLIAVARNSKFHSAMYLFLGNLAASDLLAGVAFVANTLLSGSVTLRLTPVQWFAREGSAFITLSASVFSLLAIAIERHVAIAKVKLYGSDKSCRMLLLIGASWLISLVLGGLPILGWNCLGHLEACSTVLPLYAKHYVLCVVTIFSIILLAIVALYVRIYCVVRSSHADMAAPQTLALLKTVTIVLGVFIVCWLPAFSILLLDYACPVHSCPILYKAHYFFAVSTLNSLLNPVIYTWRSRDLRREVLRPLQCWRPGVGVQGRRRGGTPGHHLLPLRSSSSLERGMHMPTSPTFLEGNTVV
- TEST: In Vitro Binding Assay: I. Master Stock SolutionUnless specified otherwise, the sample compounds were diluted in 100% anhydrous DMSO including all dilutions. The compounds were tested as the citrate salt (1 equivalent per molecule). If the sample compound is provided in a different solvent all master stock dilutions are performed in the specified solvent. All control wells contained identical solvent final concentrations as the sample compound wells.II. Compound Plate AssayThe sample compounds were transferred from a master stock solution into a daughter plate that was used in the assay. Each sample compound was diluted into an assay buffer (1×HBSS with 20 mM HEPES, 2.5 mM Probenecid, and 0.4% Free Fatty Acid BSA) at an appropriate concentration to obtain final specified concentrations.III. Antagonist Assay FormatUsing the EC80 values that were determined real-time, stimulated all pre-incubated sample compounds and reference antagonists (if applicable) were compared with the EC80 values of reference agonist. These were read for 180 seconds using the […] (This assay added reference agonist to respective wells-then fluorescences measurements were collected to calculate IC50 values).
Give just the number in nM; leave the unit off.

{"columns": ["SMILES STRUCTURE", "IC50 (nM)"],
 "data": [
  ["C=CCN(NC(=O)Nc1cc(Cl)nc(Cl)c1)c1cc(C(C)C)c2c(C)nn(C)c2n1", 52]
]}

Prompt line: Which IC50 is reported for this molecule? Cc1nn(C)c2nc(N(CCCO)NC(=O)Nc3cc(Cl)nc(Cl)c3)cc(C(C)C)c12
Response line: 19
